measurement target: IRAK4 (Homo sapiens (Human), UniProt Q9NWZ3)
Sequence (Q9NWZ3 whole entry): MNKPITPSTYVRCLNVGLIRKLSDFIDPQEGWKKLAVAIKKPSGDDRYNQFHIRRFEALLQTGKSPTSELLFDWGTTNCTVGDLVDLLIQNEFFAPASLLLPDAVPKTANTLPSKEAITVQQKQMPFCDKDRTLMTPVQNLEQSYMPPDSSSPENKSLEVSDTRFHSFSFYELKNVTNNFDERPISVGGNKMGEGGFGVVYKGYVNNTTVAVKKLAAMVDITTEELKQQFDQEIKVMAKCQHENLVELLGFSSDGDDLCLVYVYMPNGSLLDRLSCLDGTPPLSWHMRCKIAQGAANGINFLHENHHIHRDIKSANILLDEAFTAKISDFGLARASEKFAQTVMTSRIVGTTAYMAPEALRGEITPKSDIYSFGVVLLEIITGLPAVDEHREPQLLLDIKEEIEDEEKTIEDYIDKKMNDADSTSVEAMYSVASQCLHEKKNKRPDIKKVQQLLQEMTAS
experimental protocol: IRAK4 Degradation HiBiT Assay
condition set: Jurkat, read-out: Cellular IRAK4 HiBiT: Dmax, Table 4; HiBiT-tagged Jurkat cells, 4 hrs
quantity kind: Dmax (%)

Example compounds with recorded Dmax:
CNc1cc(-c2ccc3cc(C#N)cnn23)ncc1-c1nnc([C@H]2CC[C@H](NC(=O)CCCCCNc3ccc4c(c3)C(=O)N(C3CCC(=O)NC3=O)C4=O)CC2)s1 (some centres unmarked): 82
Cc1ncsc1-c1ccc(CNC(=O)[C@@H]2C[C@@H](O)CN2C(=O)C(NC(=O)[C@H]2CC[C@H](C(=O)N3CCN(c4nnc(-c5cnc(-c6ccc7cc(C#N)cnn67)cc5NC(C)C)s4)CC3)CC2)C(C)(C)C)cc1 (some centres unmarked): 67

A: CN[C@@H](C)C(=O)N[C@H](C(=O)N1CCC[C@H]1c1nc(C(=O)c2cccc(OCCOCCC(=O)N3CCN(c4nnc(-c5cnc(-c6ccc7cc(C#N)cnn67)cc5NC(C)C)s4)CC3)c2)cs1)C1CCCCC1
B: Cc1ncsc1-c1ccc(CNC(=O)[C@@H]2C[C@@H](O)CN2C(=O)[C@@H](NC(=O)CCCC(=O)N2CCN(c3nnc(-c4cnc(-c5ccc6cc(C#N)cnn56)cc4NC(C)C)s3)CC2)C(C)(C)C)cc1
C: CC(C)Nc1cc(-c2ccc3cc(C#N)cnn23)ncc1-c1nnc(N2CCN(C(=O)CNc3cccc4c3C(=O)N(C3CCC(=O)NC3=O)C4=O)CC2)s1 (centres unmarked)
In: Kindly order the items shown according to Dmax, from the highest value down. Reply with the item labels sorted in the order that was asked for.
Out: B, A, C

---

measurement target: IRAK4 (Homo sapiens (Human))
experimental protocol: IRAK4 Degradation HiBiT Assay
condition set: Jurkat, read-out: Cellular IRAK4 HiBiT: Dmax, Table 4; HiBiT-tagged Jurkat cells, 4 hrs
quantity kind: Dmax (%)

CNc1cc(-c2ccc3cc(C#N)cnn23)ncc1-c1nnc([C@H]2CC[C@H](NC(=O)CN3CCN(c4ccc5c(c4)C(=O)N(C4CCC(=O)NC4=O)C5=O)CC3)CC2)s1 (stereo partly shown): 109
CC(C)Nc1cc(-c2ccc3cc(C#N)cnn23)ncc1-c1nnc(N2CCN(C[C@H]3CCN(c4ccc5c(c4)C(=O)N(C4CCC(=O)NC4=O)C5=O)C3)CC2)s1 (stereo partly shown): 79
CC(C)Nc1cc(-c2ccc3cc(C#N)cnn23)ncc1-c1nnc(N2CCN(C(=O)CCCCCNc3cccc4c3C(=O)N(C3CCC(=O)NC3=O)C4=O)CC2)s1 (stereo not shown): 125
CC(C)Nc1cc(-c2ccc3cc(C#N)cnn23)ncc1-c1nnc([C@H]2CC[C@H](NC(=O)CCOCCOCCNc3cccc4c3C(=O)N(C3CCC(=O)NC3=O)C4=O)CC2)s1 (stereo partly shown): 91
CNc1cc(-c2ccc3cc(C#N)cnn23)ncc1-c1nnc([C@H]2CC[C@H](NC(=O)CCOCCNc3ccc4c(c3)C(=O)N(C3CCC(=O)NC3=O)C4=O)CC2)s1 (stereo partly shown): 80
CC(C)Nc1cc(-c2ccc3cc(C#N)cnn23)ncc1-c1nnc(N2CCN(C(=O)CCCCCCCNc3cccc4c3C(=O)N(C3CCC(=O)NC3=O)C4=O)CC2)s1 (stereo not shown): 100
CN[C@@H](C)C(=O)N[C@H](C(=O)N1C[C@@H](NC(=O)CCCCCCCCCCC(=O)N2CCN(c3nnc(-c4cnc(-c5ccc6cc(C#N)cnn56)cc4NC(C)C)s3)CC2)C[C@H]1C(=O)N[C@@H]1CCCc2ccccc21)C1CCCCC1: 48
